# Post-emergence action against VIOTR in % listing for each entry below
# Test system: Viola tricolor (VIOTR)
# Test details: Post-emergence herbicidal action against VIOTR
# Type: in vivo
# Details: 320 g/ha
Provide only the numeric value, understood in %.

The cases that follow already have their Post-emergence action against VIOTR in % on record.
>  <Compound>
COC(=O)COc1nn(-c2ncccc2F)c(-c2ccc(F)nc2)c1Br

>  <Post-emergence action against VIOTR in % [%]>
90

$$$$
>  <Compound>
COC(=O)CCOC(=O)COc1nn(-c2ccccn2)c(-c2ccc(Cl)nc2)c1Br

>  <Post-emergence action against VIOTR in % [%]>
80

$$$$
>  <Compound>
CCCOC(=O)COc1nn(-c2ncccc2F)c(-c2ccc(F)nc2)c1C1CC1

>  <Post-emergence action against VIOTR in % [%]>
80

$$$$

Now let's try a different one.
// query Post-emergence action against VIOTR in % value for entry CCOC(=O)CCNC(=O)CSc1nn(-c2ccccn2)c(-c2cncc(F)c2)c1Br
80
